- TARGET_OR_TEST_SYSTEM: human α4β7 (Homo sapiens, UniProt P13612+P26010)
- Construct: expressed in transfected cells
- Sequence (P26010 20-798, one chain of several): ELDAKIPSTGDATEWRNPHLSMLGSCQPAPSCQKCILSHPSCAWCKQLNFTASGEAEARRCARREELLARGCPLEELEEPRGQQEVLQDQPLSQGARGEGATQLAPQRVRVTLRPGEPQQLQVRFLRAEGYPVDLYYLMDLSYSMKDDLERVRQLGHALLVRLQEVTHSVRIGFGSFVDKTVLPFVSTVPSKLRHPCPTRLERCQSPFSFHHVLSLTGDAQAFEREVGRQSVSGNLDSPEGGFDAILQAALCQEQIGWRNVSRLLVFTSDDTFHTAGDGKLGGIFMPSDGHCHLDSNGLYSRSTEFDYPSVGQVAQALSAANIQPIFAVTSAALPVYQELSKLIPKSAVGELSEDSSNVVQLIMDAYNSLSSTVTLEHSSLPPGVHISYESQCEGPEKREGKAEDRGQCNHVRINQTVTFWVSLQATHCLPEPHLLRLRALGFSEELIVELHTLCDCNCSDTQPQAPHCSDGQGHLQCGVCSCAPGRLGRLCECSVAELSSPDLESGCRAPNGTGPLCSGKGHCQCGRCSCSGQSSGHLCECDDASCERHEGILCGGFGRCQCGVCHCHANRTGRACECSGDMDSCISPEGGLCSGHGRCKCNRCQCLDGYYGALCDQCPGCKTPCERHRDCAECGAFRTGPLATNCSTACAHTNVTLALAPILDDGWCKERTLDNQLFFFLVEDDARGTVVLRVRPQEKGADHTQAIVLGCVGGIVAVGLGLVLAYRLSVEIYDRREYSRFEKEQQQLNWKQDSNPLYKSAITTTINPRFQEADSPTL
- ASSAY_OVERVIEW: α4β7-K562 Cell Adhesion Assay (α4β7 Mediated Adhesion/VCAM-1)
- Type: cell-based
- STATED_CONDITIONS: Table IV; read-out: Inhibition of Binding of K562 Cells to Immobilized VCAM-1 IC50
READOUT_NAME: pIC50
Lab note — pIC50 values are minus log10 of concentrations in M.

// recorded pIC50 for `O=C(O)[C@H](Cc1ccc(NC(=O)[C@@H]2C3CCC(CC3)N2S(=O)(=O)c2ccccc2)cc1)NC(=O)[C@@H]1C2CCC(CC2)N1S(=O)(=O)c1ccccc1` : 5.69

// recorded pIC50 for Cc1ccc(S(=O)(=O)N2C3CCC(CC3)C2C(=O)N[C@@H](Cc2ccc(NC(=O)c3ccccc3Br)cc2)C(=O)O)cc1 (stereo partly shown) : 6.04

// recorded pIC50 for Cc1ccc(S(=O)(=O)N2C3CCC(CC3)C2C(=O)N[C@@H](Cc2ccc(NC(=O)c3c(Cl)cccc3Cl)cc2)C(=O)O)cc1 (mixture of isomers) : 6.85

// recorded pIC50 for Cc1ccc(S(=O)(=O)N2C3CCC(CC3)C2C(=O)N[C@@H](Cc2ccc(NC(=O)c3ccccc3Cl)cc2)C(=O)O)cc1 (stereo partly shown) : 5.36

// recorded pIC50 for O=C(Nc1ccc(C[C@H](NC(=O)[C@@H]2C3CCC(CC3)N2S(=O)(=O)c2ccccc2)C(=O)O)cc1)c1ccncc1 [Cpd 50a] : 6.65

// recorded pIC50 for `Cc1ccc(S(=O)(=O)N2C3CCC(CC3)[C@H]2C(=O)N[C@@H](Cc2ccc(OCc3c(Cl)cccc3Cl)cc2)C(=O)O)cc1` : 5.31

// recorded pIC50 for `COc1cccc(OC)c1-c1ccc(C[C@H](NC(=O)[C@@H]2C3CCC(CC3)N2S(=O)(=O)c2ccccc2)C(=O)O)cc1` : 6.46

// recorded pIC50 for Cc1ccc(S(=O)(=O)N2C3CCC(CC3)C2C(=O)N[C@@H](Cc2ccc(NC(=O)c3c(Cl)cc(Cl)cc3Cl)cc2)C(=O)O)cc1 (stereo partly shown) : 7.01

// recorded pIC50 for O=C(Nc1ccc(C[C@H](NC(=O)C2C3CCC(CC3)N2S(=O)(=O)c2ccc(F)cc2)C(=O)O)cc1)c1c(Cl)cccc1Cl (stereo partly shown) : 6.93

// recorded pIC50 for COc1cccc(OC)c1C(=O)Nc1ccc(C[C@H](NC(=O)C2C3CCC(CC3)N2S(=O)(=O)c2ccc(C)cc2)C(=O)O)cc1 (stereo partly shown) : 5.71

---

- TARGET_OR_TEST_SYSTEM: α4β1 integrin receptor (Homo sapiens, UniProt P05556+P13612)
- Construct: Ramos Cell Adhesion Assay (α4β1 Mediated Adhesion/VCAM-1); endogenous in cells; host or cells: Ramos cells
- Sequence (P13612 34-1032): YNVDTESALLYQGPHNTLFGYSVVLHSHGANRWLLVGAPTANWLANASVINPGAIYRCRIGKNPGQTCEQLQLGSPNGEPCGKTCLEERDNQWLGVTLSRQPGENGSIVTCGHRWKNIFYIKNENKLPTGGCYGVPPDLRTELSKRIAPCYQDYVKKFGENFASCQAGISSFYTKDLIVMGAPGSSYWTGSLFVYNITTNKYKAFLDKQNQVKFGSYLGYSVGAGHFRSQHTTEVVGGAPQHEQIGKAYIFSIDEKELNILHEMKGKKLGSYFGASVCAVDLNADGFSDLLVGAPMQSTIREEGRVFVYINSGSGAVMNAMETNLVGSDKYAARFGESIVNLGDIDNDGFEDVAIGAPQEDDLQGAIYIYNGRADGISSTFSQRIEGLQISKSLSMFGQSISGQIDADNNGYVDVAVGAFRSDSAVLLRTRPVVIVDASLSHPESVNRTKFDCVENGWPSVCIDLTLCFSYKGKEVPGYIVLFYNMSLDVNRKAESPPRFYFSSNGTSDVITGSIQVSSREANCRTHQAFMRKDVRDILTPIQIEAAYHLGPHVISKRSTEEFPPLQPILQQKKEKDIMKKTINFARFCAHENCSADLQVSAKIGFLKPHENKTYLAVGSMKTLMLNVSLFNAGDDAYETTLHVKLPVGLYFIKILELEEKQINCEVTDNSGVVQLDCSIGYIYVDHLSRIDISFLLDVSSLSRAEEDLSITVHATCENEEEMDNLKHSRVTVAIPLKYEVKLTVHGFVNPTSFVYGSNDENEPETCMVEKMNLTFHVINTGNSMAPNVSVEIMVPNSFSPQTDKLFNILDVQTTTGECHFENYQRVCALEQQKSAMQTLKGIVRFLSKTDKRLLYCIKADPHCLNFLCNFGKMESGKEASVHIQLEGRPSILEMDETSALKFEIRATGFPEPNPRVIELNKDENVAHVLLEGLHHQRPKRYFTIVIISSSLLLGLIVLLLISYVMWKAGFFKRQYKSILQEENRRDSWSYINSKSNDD
- Sequence (P05556 21-798): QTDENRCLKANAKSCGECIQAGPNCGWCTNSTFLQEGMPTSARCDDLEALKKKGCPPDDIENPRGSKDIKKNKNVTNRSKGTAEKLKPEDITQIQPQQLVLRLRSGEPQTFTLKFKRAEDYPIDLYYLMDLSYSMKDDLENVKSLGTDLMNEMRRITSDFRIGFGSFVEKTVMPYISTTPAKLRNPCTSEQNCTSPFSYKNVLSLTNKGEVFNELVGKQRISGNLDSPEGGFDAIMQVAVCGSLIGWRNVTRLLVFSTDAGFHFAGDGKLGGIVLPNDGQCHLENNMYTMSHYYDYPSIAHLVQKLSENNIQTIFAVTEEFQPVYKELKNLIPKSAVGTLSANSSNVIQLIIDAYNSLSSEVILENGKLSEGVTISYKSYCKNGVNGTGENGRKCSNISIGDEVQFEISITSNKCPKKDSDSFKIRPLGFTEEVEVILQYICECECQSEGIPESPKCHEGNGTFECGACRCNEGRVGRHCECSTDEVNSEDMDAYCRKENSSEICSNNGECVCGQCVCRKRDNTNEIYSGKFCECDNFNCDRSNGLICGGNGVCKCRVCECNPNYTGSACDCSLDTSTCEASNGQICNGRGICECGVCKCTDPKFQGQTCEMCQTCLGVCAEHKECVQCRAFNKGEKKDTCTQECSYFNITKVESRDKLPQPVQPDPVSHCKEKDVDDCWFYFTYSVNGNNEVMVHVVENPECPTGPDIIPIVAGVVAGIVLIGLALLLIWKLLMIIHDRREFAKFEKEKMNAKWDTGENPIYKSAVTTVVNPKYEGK
- ASSAY_OVERVIEW: Ramos Cell Adhesion Assay (α4β1 Mediated Adhesion/VCAM-1)
- Format: cell-based
- STATED_CONDITIONS: Table III; read-out: Inhibition of Binding of Ramos Cells to Immobilized VCAM-1 IC50
READOUT_NAME: IC50 (nM)
Give just the number in nM; leave the unit off.

// recorded IC50 for O=C(Nc1ccc(C[C@H](NC(=O)C2C3CCC(CC3)N2S(=O)(=O)c2cccs2)C(=O)O)cc1)c1c(Cl)cncc1Cl (mixture of isomers) : 7

// recorded IC50 for O=C(Nc1ccc(C[C@H](NC(=O)C2C3CCC(CC3)N2S(=O)(=O)c2ccccc2)C(=O)O)cc1)Nc1c(Cl)cccc1Cl (stereo partly drawn) : 1600

// recorded IC50 for COc1cccc(OC)c1-c1ccc(C[C@H](NC(=O)C2C3CCC(CC3)N2S(=O)(=O)c2ccc(C)cc2)C(=O)O)cc1 (mixture of isomers) : 124

// recorded IC50 for CC(C)(C)OC(=O)N1CCC(C(=O)Nc2ccc(C[C@H](NC(=O)[C@@H]3C4CCC(CC4)N3S(=O)(=O)c3ccccc3)C(=O)O)cc2)CC1 [Cpd 53a] : 219

// recorded IC50 for `O=C(Nc1ccc(C[C@H](NC(=O)[C@@H]2C3CCC(CC3)N2S(=O)(=O)c2ccccc2)C(=O)O)cc1)C1CC1` : 628

// recorded IC50 for O=C(Nc1ccc(C[C@H](NC(=O)C2C3C=CC(CC3)N2S(=O)(=O)c2ccccc2)C(=O)O)cc1)c1c(Cl)cccc1Cl (stereo partly drawn) : 22

// recorded IC50 for O=C(Nc1ccc(C[C@H](NC(=O)C2C3CCC(CC3)N2S(=O)(=O)c2ccccc2)C(=O)O)cc1)c1ccncc1 (stereo partly drawn) : 55

// recorded IC50 for Cc1ccc(S(=O)(=O)N2C3CCC(CC3)C2C(=O)N[C@@H](Cc2ccc(NC(=O)c3c(Cl)cc(Cl)cc3Cl)cc2)C(=O)O)cc1 (stereo partly drawn) : 51

// recorded IC50 for `CC(C)(C)C(=O)Nc1ccc(C[C@H](NC(=O)[C@@H]2C3CCC(CC3)N2S(=O)(=O)c2ccccc2)C(=O)O)cc1` : 393
